- targetOrTestSystem: human activated kallikrein enzyme (Homo sapiens, UniProt P03952)
- Sequence (P03952 391-638 limits assumed): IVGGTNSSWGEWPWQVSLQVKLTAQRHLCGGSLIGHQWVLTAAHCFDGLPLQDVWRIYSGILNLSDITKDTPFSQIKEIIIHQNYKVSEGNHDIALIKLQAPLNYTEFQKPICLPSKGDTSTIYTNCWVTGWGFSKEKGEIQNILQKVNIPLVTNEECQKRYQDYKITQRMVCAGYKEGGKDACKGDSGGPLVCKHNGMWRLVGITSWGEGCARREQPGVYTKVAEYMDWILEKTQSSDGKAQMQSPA
- Sequence (P03952 20-390 partner limits assumed): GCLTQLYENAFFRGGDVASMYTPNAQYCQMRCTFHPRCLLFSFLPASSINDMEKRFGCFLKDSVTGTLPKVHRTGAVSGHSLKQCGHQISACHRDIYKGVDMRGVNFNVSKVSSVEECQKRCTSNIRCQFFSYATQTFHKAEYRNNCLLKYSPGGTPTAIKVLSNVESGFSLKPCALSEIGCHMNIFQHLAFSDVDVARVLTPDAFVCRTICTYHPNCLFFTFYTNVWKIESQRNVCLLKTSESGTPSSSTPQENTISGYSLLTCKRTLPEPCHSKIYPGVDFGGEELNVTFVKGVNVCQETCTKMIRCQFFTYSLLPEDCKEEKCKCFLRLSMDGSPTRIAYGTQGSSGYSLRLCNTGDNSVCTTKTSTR
- assayNotes: Inhibition of human activated plasma kallikrein, fluorogenic PFR-AMC substrate, 500 pM enzyme format
- Assay type: biochemical
- runParameters: 500 pM activated kallikrein; 300 μM PFR-AMC; 30 min preincubation; 10 min room temperature; pH 7.5; read-out: Primary Dose Response Assay: Average EC50
pEC50: −log10 of the molar value.
Entries and their pEC50 values follow.
observationType: pEC50

[[record]]
chemicalstructure = "Cc1cc2c(N)nccc2c(C)c1CNC(=O)c1cnn(CC(=O)N(C)c2ccccc2)c1"
observationtype = "pEC50"
assayvalue = "< 6.00"

[[record]]
chemicalstructure = "Cc1c(CNc2cc(OCc3cn4cc(C5CC5)ccc4n3)ncn2)c(C2(C)CC2)cc2c(N)nccc12"
observationtype = "pEC50"
assayvalue = "> 9.00"

[[record]]
chemicalstructure = "Cc1cc2c(N)nccc2c(C)c1CNc1ccc2cnc(Cc3ccc4ncc(Cl)cc4c3)n2c1"
observationtype = "pEC50"
assayvalue = "< 6.00"

[[record]]
chemicalstructure = "COCc1nn(Cc2cnc(N3CCCC3)nc2)cc1C(=O)NCc1c(C)cc2c(N)nccc2c1C"
observationtype = "pEC50"
assayvalue = "> 9.00"


* * *

- targetOrTestSystem: human activated kallikrein enzyme (Homo sapiens)
- assayNotes: Inhibition of human activated plasma kallikrein, fluorogenic PFR-AMC substrate, 500 pM enzyme format
- Assay type: biochemical
- runParameters: 500 pM activated kallikrein; 300 μM PFR-AMC; 30 min preincubation; 10 min room temperature; pH 7.5; read-out: Primary Dose Response Assay: Average EC50
pEC50: −log10 of the molar value. Structures can show the parent of a compound that is named as a salt.
Collected pEC50 values appear next to each entry.
observationType: pEC50

[[record]]
molecule = "Cc1cnc2ccc(C(C)Oc3cnnc(NCc4c(C)cc5c(N)nccc5c4C)c3)cc2c1 (centres unmarked)"
assayvalue = "> 9.00"

[[record]]
molecule = "Cc1cc2c(N)nccc2c(C)c1CNc1cc(OCc2cn3nc(C4CC4)cc(CN4CCCC4)c3n2)ncn1"
assayvalue = "> 9.00"

[[record]]
molecule = "Cc1cc2c(N)nccc2c(C)c1CNc1cc(OCc2cccc(-n3ccccc3=O)c2)cnn1"
assayvalue = "8.00 to 9.00"

[[record]]
molecule = "Cc1ccc2ncc(COc3cc(NCc4c(C)cc5c(N)nccc5c4C)ncn3)cc2c1 [Example 372, formic acid salt]"
assayvalue = "8.00 to 9.00"

[[record]]
molecule = "Cc1cc2c(N)nccc2c(C)c1CNC(=O)c1cnn(Cc2ccc3ncc(C4CC4)cc3c2)c1"
assayvalue = "> 9.00"

[[record]]
molecule = "Cc1cc2c(N)nccc2c(C)c1CNc1ncccc1OCc1cn2cc(C3CC3)ccc2n1"
assayvalue = "6.00 to 7.00"

[[record]]
molecule = "Cc1cc2c(N)nccc2c(C)c1CNC(=O)c1cnn(Cc2cn3c(C)cccc3n2)c1"
assayvalue = "> 9.00"

[[record]]
molecule = "Cc1cc2c(N)nccc2c(C)c1CNC(=O)c1cnn(Cc2ccc(CC(=O)N3CC4CC(C4)C3)cc2)c1"
assayvalue = "8.00 to 9.00"

[[record]]
molecule = "Cc1cc2c(N)nccc2c(C)c1CNC(=O)c1cnn(C(CN)c2ccccc2)c1 (centres unmarked)"
assayvalue = "6.00 to 7.00"

[[record]]
molecule = "Cc1c(CNc2cc(NCc3ccc(Cn4ccccc4=O)cc3)cnn2)ccc2c(N)nccc12"
assayvalue = "> 9.00"

[[record]]
molecule = "Cc1cc2c(N)nccc2c(C)c1CNc1cc(OCc2cn3ccccc3n2)cnn1"
assayvalue = "7.00 to 8.00"

[[record]]
molecule = "Cc1cc2c(N)nccc2c(C)c1CNc1cnnc(OCc2ccc(CC(=O)N(C)C)cc2)c1"
assayvalue = "< 6.00"

[[record]]
molecule = "Cc1cc2c(N)nccc2c(C)c1CNc1cc(OCc2cn3c(=O)n(C4CC4)ccc3n2)ncn1"
assayvalue = "7.00 to 8.00"

[[record]]
molecule = "Cc1cc2c(N)nccc2c(C)c1CNc1cc(Cc2cn3cc(C4CC4)ccc3n2)ncn1"
assayvalue = "> 9.00"

[[record]]
molecule = "Cc1cnc2ccc(COc3cnnc(NCc4c(C)cc5c(N)nccc5c4C)c3)cc2c1"
assayvalue = "> 9.00"

[[record]]
molecule = "Cc1cc2c(N)nccc2c(C)c1CNC(=O)c1cnn(Cc2ccc3ncccc3c2)c1"
assayvalue = "> 9.00"

[[record]]
molecule = "Cc1cc2c(N)nccc2c(C)c1CNC(=O)c1cnn(Cc2cn3c(C)c(Cl)ccc3n2)c1"
assayvalue = "> 9.00"

[[record]]
molecule = "Cc1cc2c(N)nccc2c(C)c1CNC(=O)c1cnn(Cc2ccc(CC(=O)N3CC4CC4C3)c(Cl)c2)c1 (centres unmarked)"
assayvalue = "> 9.00"

[[record]]
molecule = "Cc1cc2c(N)nccc2c(C)c1CNc1cc(NCc2ccc(C3CC3)cc2)ncn1"
assayvalue = "7.00 to 8.00"

[[record]]
molecule = "Cc1cc2c(N)nccc2c(C)c1CNC(=O)c1cc(CN)n(Cc2ccccc2)n1"
assayvalue = "< 6.00"

[[record]]
molecule = "Cc1cc2c(N)nccc2c(C)c1CNc1cc(NCc2ccc(Cn3ccccc3=O)cc2)cnn1"
assayvalue = "> 9.00"

[[record]]
molecule = "CC(=O)Nc1nccc2c(C)c(CNC(=O)c3cnn(Cc4cn5cc(C)ccc5n4)c3)c(C)cc12"
assayvalue = "7.00 to 8.00"

[[record]]
molecule = "Cc1cc2c(N)nccc2c(C)c1CNc1cc(OCc2cn3cc(C4CC4)ccc3n2)c(Cl)cn1"
assayvalue = "8.00 to 9.00"

[[record]]
molecule = "Cc1cc2c(N)nccc2c(C)c1CNC(=O)c1cnn(Cc2ccc3ccccc3c2)c1"
assayvalue = "8.00 to 9.00"

[[record]]
molecule = "Cc1cc2c(N)nccc2c(C)c1CNC(=O)c1cnn(Cc2nc3ccccc3n2C(F)F)c1"
assayvalue = "7.00 to 8.00"

[[record]]
molecule = "COc1ccnc2ccc(CNc3cc(NCc4c(C)cc5c(N)nccc5c4C)ncn3)cc12"
assayvalue = "8.00 to 9.00"

[[record]]
molecule = "Cc1cc2c(N)nccc2c(C)c1CNc1cc(OCc2ccc3ncccc3c2)ncn1"
assayvalue = "7.00 to 8.00"

[[record]]
molecule = "Cc1cc2c(N)nccc2c(C)c1CNC(=O)c1ccnc(Cc2ccc(Cn3cccn3)cc2)c1"
assayvalue = "> 9.00"

[[record]]
molecule = "Cc1cc2c(N)nccc2c(C)c1CNc1cncc(NCc2ccc(Cn3cccn3)cc2)n1"
assayvalue = "7.00 to 8.00"

[[record]]
molecule = "Cc1cc2c(N)nccc2c(C)c1CNC(=O)c1cnn(Cc2cn3cc(C(F)(F)F)ccc3n2)c1"
assayvalue = "> 9.00"

[[record]]
molecule = "Cc1cc2c(N)nccc2c(C)c1CNc1cc(NCc2ccc3ncc(C4CC4)cc3c2)ncn1"
assayvalue = "> 9.00"

[[record]]
molecule = "Cc1cc2c(N)nccc2c(C)c1CNc1cc(NCc2ccc(OC(F)(F)C(=O)N(C)C)cc2)ncn1"
assayvalue = "7.00 to 8.00"

